experiment: yeast display, Sf9 membrane polyspecificity reagent, FACS + sequencing; frameworks hold sequencing errors
value type: polyreactivity (PSR sort gate)

A selection of reference data follows.
>  <seq string>
QVQLVESGGGLVQAGGSLRLSCAASGFIFSHYAMGWYRQAPGKERELVAAIRSGGTTNYADSVKGRFTISRDNAKHTVYLQMNSLKPEDTAVYYCAASSRRSWTYDYWGQGTQVTVSS

>  <polyreactivity (PSR sort gate)>
high polyreactivity

$$$$
>  <seq string>
QVQLVESGGGLVQAGGSLRLSCAASGSILRLYAMGWYRQAPGKERELVAAISSGGSTYYADSVKGRFPISRDNAKNTVYLQMNSLKPEDTAVYYCAAGVFWSWRYAYDYWGKGTQVTVSS

>  <polyreactivity (PSR sort gate)>
low polyreactivity

$$$$
>  <seq string>
QVQLVESGGGLDQAGGSLRLSCAASGFIFRYYTMGWYRQAPGKERELFATITSGGSTYYADSVKGRFTISRDNAKNTVYLQMNSLKPEDTAVYYCAKYHSLRRQYSKFRPTFDYWGQGTQVTVSS

>  <polyreactivity (PSR sort gate)>
high polyreactivity

$$$$
>  <seq string>
QVQLVESGGGLVQAGGSLRFSCAASGRISPSYAMGWNRKAPGKERELVAAIYRGGSTSYADSVKGRFTISRDNAKNNVYLQMNSLKPEDTAVYYCATRGPRYRYYYWGQGTQVTVSS

>  <polyreactivity (PSR sort gate)>
high polyreactivity

$$$$
>  <seq string>
QVQLVESGGGLVQAGGSLRLSCAASGFTFETYVMGWYRQAPGKERELVAAISRRGGSTYYADSVKGRFTISRDNAKNTVYLQMNSLKPEDTAVYYCGKDGGWSRLHYNYWGQGTQVTVSS

>  <polyreactivity (PSR sort gate)>
high polyreactivity

$$$$

polyreactivity (PSR sort gate) reading for "QVQLVESGGGLVQAGGSLRLSCAASGRIFGIYAMGWYRQAPGKERELVATITDSDDSTYYADSVKGRFTISRDNAKNTVYLQMNSLKPEDTAVYYCAAADGIYARYFFSRFPRFDYWGQGTQVTVSS" : low polyreactivity

polyreactivity (PSR sort gate) reading for "QVQIVESGGGLVQAGGSLRLSCAASGSIFSVYAMGWYRQAPGKERELVAGINRRTGITYYADSVKGRFTISRDNAKNTVYLQMNSLKPEDTAVYYCAADPYVKYNYWGQGTQVTVSS" : low polyreactivity

polyreactivity (PSR sort gate) reading for "QVQLVESGGGLVQAGGSLRLSCAASGSIFPDNTMGWYRQAPGKERELVAAIDGRGGTTYYADSVKGRFTISRDNAKNTVYLQMNSLKPEDTAVYYCNAGVWTYWHIEMDYWGQGTQVTVSS" : low polyreactivity

polyreactivity (PSR sort gate) reading for "QVQLLESVGGLVQAGGSLRLSCAASGRTFSRYAMGSYRQAPGKERELVATISSSGGTTYYADSVKGRFTISRDNAKNTVYLQMNSLKPEDTAVYYCNAESKKRTHASGYDYWGHGTQVTVSS" : low polyreactivity

polyreactivity (PSR sort gate) reading for "QVQLVESGGGLVQAGGSLRLSCAASGRIFPWYTMGWYRQAPGKERELVAAITSGGNTDYADSVKGRFTISRDNAKNTVYLQMNSLKPEDTAVYYCAAGGYPGTTYYGYDYWGQGTQVTVSS" : low polyreactivity

polyreactivity (PSR sort gate) reading for "QVQLVESGGGLVQAGGSLRLSCAASGSTFGFNAMGWYRQAPGKERELVAAISRSGTRTYYADSVKGRFTISRDNAKNTVYLQMNSLKPEDTAVYYCAADSTLSRYDYWGQGTQVTVSS" : high polyreactivity

All figures here come from the nanobody polyreactivity screen of Harvey et al. (2022).
